Taken from the supplement of paper PMC9170038.

Tested on: MS2 coat protein
experiment notes: apparent KD of MS2 coat protein; higher = weaker reporter binding
condition: Eterna round: R107; input ligand: none
Mark 1 for reported apparent KD of MS2 coat protein of 40 nM or greater; mark -1 for anything smaller.

[
  {
    "sequence entry": "CGUCGAAACUGAAGGAGCGAGAUGACAACAUUGGGUCUAACAUGAGGAUCACCCAUGUAAUCUCAGGUAGGUCGCGGUGUCAACA [Exclusion Arginine B GF18]",
    "qualitative label": 1
  },
  {
    "sequence entry": "AGGACCAGGAUCCUCAUGUAACUGGUCCAACGAGGACCGGUACGGCCGCCACUCGAAUAAACAUGAGGAUCACCCAUGUAAUAAU [T''-M-T'-T-MS2]",
    "qualitative label": 1
  },
  {
    "sequence entry": "AGGACAUGAGGAUCACCCAUGUACUCUGAAGGAGCGUCGAGAACGACAGGUAGGUCGCAGGCUAAGGAAGGUGAUGCUCAAGAAG [Exclusion Arginine A GF7]",
    "qualitative label": -1
  },
  {
    "sequence entry": "ACGAUAGGACCUGAGGAUCACCCAGGUGAUACCAGCCUGGAAACAGGCCCUUGGCAGCACCAAUACUCCAAUAACCUAUCGAAUA [TheoAX 11 #MicroSwitchBubble #AlternativeMS2]",
    "qualitative label": 1
  },
  {
    "sequence entry": "GGGUAAGAUCCGGAUACCAGCGAACAUGAGGAUCACCCAUGUGACCUAAGAUAGGCUAAACGCCCUUGGCAGCCGAGAUAGCGUU [Same State Theophylline B GF 6]",
    "qualitative label": 1
  }
]

---

Tested on: MS2 coat protein
experiment notes: apparent KD of MS2 coat protein; designed switch direction (-1 OFF switch, 1 ON switch): 1; higher = weaker reporter binding
condition: input ligand: none
Known apparent KD of MS2 coat protein of a selection of sequences
measurement kind: apparent KD of MS2 coat protein (nM)

[
  {
    "sequence entry": "ACUUACAUGGUAGGAUAUGUCCGUCUAGCUGACACAGAAGGGCCAAGCUCUACGACAUGAGGAUCACCCAUGUGAAGGAGAGGC [Eternabot solution 49] (Eterna round: R96, puzzle: Same State NG 1)",
    "measurement kind": "apparent KD of MS2 coat protein",
    "test value": 18.3
  },
  {
    "sequence entry": "GAGUAGUUGAAAGGAUAUAGAUUGUUGUAGGAUCUAGAAGGUUCUAACAUGAGGAUCACCCAUGUAGGACUAUUCCUGUGUAUC [Parity 87 - Jieux - Same State NG 1] (Eterna round: R96, puzzle: Same State NG 1)",
    "measurement kind": "apparent KD of MS2 coat protein",
    "test value": 13.1
  },
  {
    "sequence entry": "UGAAUAGUUACAGGAUAUCAUGCGAAAAUUGCGUGAGAAGGGUGGGUGUUGUGCGCUAAGUGCCACAUGAGGAUCACCCAUGUU [SameState NG1 #38] (Eterna round: R96, puzzle: Same State NG 1)",
    "measurement kind": "apparent KD of MS2 coat protein",
    "test value": 25.6
  },
  {
    "sequence entry": "GAGUGGAGGAGAGGAUAUACAAUGAUAAUCACAGUAGAAGGUUCUAACAUGAGGAUCACCCAUGUAGGACUAUUCCUGAGAGAA [Parity 49 - Jieux - Same State NG 1] (Eterna round: R96, puzzle: Same State NG 1)",
    "measurement kind": "apparent KD of MS2 coat protein",
    "test value": 15.7
  }
]
